system: C. ljungdahlii ERI-2; assay: Carboxylic acid reduction in batch cultures with constant syngas supply; assay type: cell-based, Clostridium ljungdahlii; details: 15 mM carboxylic acid
observation type: growth rate (h⁻¹)
State the answer as a number, implicitly in h⁻¹.

// query Fill in the blank: the reported growth rate of `CCCCCC(=O)O` is ____.
// result 0.049

// query Fill in the blank: the reported growth rate of `CCC(=O)O` is ____.
// result 0.084

// query Fill in the blank: the reported growth rate of `CCCCC(=O)O` is ____.
// result 0.077

// query Fill in the blank: the reported growth rate of `CC(C)C(=O)O` is ____.
// result 0.077

// query Fill in the blank: the reported growth rate of `CCCC(=O)O` is ____.
// result 0.094
